- tested-system: RUNX1 (UniProt Q01196)
- Sequence (Q01196 whole entry): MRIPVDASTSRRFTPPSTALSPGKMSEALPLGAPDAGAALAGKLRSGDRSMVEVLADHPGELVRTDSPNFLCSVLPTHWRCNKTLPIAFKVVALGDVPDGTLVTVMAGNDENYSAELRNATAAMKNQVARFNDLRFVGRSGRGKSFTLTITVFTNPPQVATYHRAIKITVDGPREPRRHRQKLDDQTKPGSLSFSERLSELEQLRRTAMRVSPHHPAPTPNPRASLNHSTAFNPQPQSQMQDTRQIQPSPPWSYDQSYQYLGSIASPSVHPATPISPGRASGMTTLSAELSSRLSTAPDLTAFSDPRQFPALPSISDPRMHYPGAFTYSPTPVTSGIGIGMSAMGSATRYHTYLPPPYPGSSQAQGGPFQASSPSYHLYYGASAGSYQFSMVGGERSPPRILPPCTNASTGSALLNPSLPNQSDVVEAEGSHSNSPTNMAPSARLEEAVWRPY
- protocol-details: RUNX1 binding intensity (PBM fluorescence) in presence of ETS1, normalised to RUNX1-only experiment (arbitrary fluorescence units); higher = stronger binding
- condition-notes: RUNX1 concentration 2 nM; ETS1 concentration 25 nM
For each of the sequences below, state its RUNX1 binding intensity.
Give bare numbers.

Some solved cases for reference:
AGATGCAGAACAGGAAGTGGTTTAGAAAGCCACTCT ... 2720
GCAGTGCAGGAAGTGCTTTGTGTGGTACAATCCCAA ... 1030
AGCTGTTTGGTCACAGGATGTGGTTATTAGAATAGG ... 4040
TCCCACATCCTGTGCTCGTGCAGTGGTTAGGCTCAA ... 2490
CTGAAACAGGAAACAGACAAAGCCACAAGGTTCGCA ... 1780

I would be grateful if you could provide RUNX1 binding intensity for each of the following entries.
1. GAGCGGAAACCCGAGAGTCAGTTCAACCACAGCCAC
2. CCCGGAAACTCAACTGCCCACTGCTGCGGCCGCCAT
3. ATCTTTTGATGAGGATGTGGTTTCCAGGCAGGTGCT
4. GCTGCTTCCGGCCGCTGGTCGCAGGGCTGCGGGACT

Reply:
1. 1010
2. 1090
3. 1620
4. 1760

I would be grateful if you could provide RUNX1 binding intensity for each of the following entries.
1. AACTCCTGGCCGGAACGGCACAGACCGCACTCCCGC
2. CCCACTGATAAGACAGGATGTGGTAAAGAAGCCAGC
3. TACCTAGACCCTTTCCGCCCTTACCGCGGCCAGACA
4. CTGTGACACGTGCGGAAGCTGTGGTAAGTGCATCCA
5. GTCTTTCACTCCACTTCCGCCCCCACAAAACATACA

Reply:
1. 917
2. 6790
3. 1410
4. 984
5. 6600

---

- tested-system: ETS1 (UniProt P14921)
- Sequence: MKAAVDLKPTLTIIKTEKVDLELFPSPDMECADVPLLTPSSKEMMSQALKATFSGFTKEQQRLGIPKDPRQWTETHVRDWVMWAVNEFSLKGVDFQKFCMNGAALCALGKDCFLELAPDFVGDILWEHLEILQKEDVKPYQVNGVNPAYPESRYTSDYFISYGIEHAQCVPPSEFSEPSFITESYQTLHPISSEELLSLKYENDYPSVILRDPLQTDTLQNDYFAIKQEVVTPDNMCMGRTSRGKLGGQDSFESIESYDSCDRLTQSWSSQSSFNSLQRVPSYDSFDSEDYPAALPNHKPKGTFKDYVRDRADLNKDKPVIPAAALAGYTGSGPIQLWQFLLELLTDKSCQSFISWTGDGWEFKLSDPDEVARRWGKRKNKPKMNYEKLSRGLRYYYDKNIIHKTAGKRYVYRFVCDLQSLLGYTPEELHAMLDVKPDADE
- protocol-details: ETS1 binding intensity (PBM fluorescence), ETS1 alone (arbitrary fluorescence units); higher = stronger binding
- condition-notes: ETS1 concentration 1 nM; RUNX1 concentration 0 nM
Label class 1 when ETS1 binding intensity is at or above 500; otherwise label class 0.

AATCTGAAACAGGAAATAAGTCTGTGGTTGTGTGTT ... class 1
GTGGAAAGGAAATGTGTCATCTGTGGTTTGGTTTTA ... class 1
CGAGTCAGGAAATCACAGCTCTGCGGGTGGGCTCCT ... class 0
GCCCGCGGCTCCGGAAGCGGCTGCGGCCCCGACCGG ... class 1

Task item: Can GTTTCTCTGGCCAGGAAATTGAGGTTTCTGTTAGTC be said to have ETS1 binding intensity at or above 500?
Reply: class 1

---

- tested-system: RUNX1 (UniProt Q01196)
- protocol-details: RUNX1 binding intensity (PBM fluorescence) in presence of ETS1, normalised to RUNX1-only experiment (arbitrary fluorescence units); higher = stronger binding
- condition-notes: RUNX1 concentration 2 nM; ETS1 concentration 25 nM
For each of the sequences below, state its RUNX1 binding intensity.
Numbers only.

Some solved cases for reference:
AACAAACCGGATGGGGTTCCCACCCGCAATCTTGTC ... 1970
AGGGACCCGGATGTCTGGTCTGCGGCTGCTCCTCTA ... 1250

I would be grateful if you could provide RUNX1 binding intensity for each of the following entries.
1. GAGCCCAACCGGCATCCGTCGCGGTTGGACGTGGGC
2. GGGGCAGGAAGTGGAGGTTTGAAGTGGTTTAGAGTA
3. CGGCATCTGACAGGATGTGGGCAGGGAGAGAGAGAC
4. GTGTGAAGGAAGTGTGAGATCAAACCACAGCTGGGT
5. TCCACATCCTGCTCCTCGGGTTTGCGGCGAGGACTC
6. AAAGAGGAAATCACGTACCCGAAAACCACATGCACA

Reply:
1: 1070; 2: 1350; 3: 4210; 4: 947; 5: 2660; 6: 928

---

- tested-system: ETS1 (UniProt P14921)
- Sequence: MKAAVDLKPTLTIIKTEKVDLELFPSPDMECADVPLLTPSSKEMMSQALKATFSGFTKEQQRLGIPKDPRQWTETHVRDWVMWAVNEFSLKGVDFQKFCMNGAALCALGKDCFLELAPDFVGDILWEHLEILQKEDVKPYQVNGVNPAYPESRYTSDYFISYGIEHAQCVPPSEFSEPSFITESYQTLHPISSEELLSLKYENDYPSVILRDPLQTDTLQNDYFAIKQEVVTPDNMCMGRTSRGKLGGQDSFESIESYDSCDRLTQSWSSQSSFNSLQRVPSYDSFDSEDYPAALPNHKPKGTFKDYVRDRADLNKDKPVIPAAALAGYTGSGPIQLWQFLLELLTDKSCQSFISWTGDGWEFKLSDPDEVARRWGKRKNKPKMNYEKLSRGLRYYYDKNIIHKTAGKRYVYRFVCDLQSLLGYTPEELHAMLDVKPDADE
- protocol-details: ETS1 binding intensity (PBM fluorescence) in presence of RUNX1, normalised to ETS1-only experiment (arbitrary fluorescence units); higher = stronger binding
- condition-notes: ETS1 concentration 1 nM; RUNX1 concentration 25 nM
We'd kindly ask you to apply these ETS1 binding intensity classes: lower bin (below 600), middle bin (600 to below 3000), upper bin (3000 or more)

GCGAGAGGGAGGAAGTGACTCACCAACCACAACAAA ... upper bin
CGAGCTCGCAAGAGGAAACCGCGGCGCGGAGGCAGC ... middle bin
CTGCCTTTCCTGCTAGGGTACAAACCACAGCCTTAG ... middle bin
AATGGGCTTGGTTTCCTGTGGGTTTGTAGCTTTGTA ... middle bin
CAGCCCTAGCGAGTTTCCTGCGGGGAAGGGCATTCC ... lower bin
GCAGTCGCTAAGGGCGGAAACCACTGTTTGGGAGCT ... upper bin
TCCCTCATGAGCTTCTTCCGCCCGCAACACGAGACT ... lower bin
GTCGTCCCGGAAACCGGGATGCGGTTATCAGAGCGA ... upper bin
CCCTGAGCACTTCCCCGTAAGGCTGCGGTGCACGGG ... lower bin
TCCAGGATGTGCTGAACCTCCAGAAACCACCGGCTT ... middle bin

Task item: # classify by ETS1 binding intensity band: CTCTTCAGCAGGAAATGATGTGGTAAAACAGGGTTA
Reply: upper bin

Task item: # classify by ETS1 binding intensity band: AGCAGCTGCCAGAGGAAGTCTGCGGTCGGAACAGGC
Reply: upper bin

Task item: # classify by ETS1 binding intensity band: CCTGTCCGGAAGTCCTGAGAGGGAATCGCCCGCAAA
Reply: upper bin

Task item: # classify by ETS1 binding intensity band: TGCCGGAAGCCCGCCAGGCACAGGACCCGCAGGGGT
Reply: lower bin

Task item: # classify by ETS1 binding intensity band: GTGGCTTCCTGCCATTGACAATTGCGGGATGGCTTT
Reply: lower bin

Task item: # classify by ETS1 binding intensity band: CAGCTTTCCGGCCTGCAGCACAGGCAATGTGGTTTT
Reply: lower bin

---

- tested-system: RUNX1 (UniProt Q01196)
- protocol-details: RUNX1 binding intensity (PBM fluorescence) in presence of ETS1, normalised to RUNX1-only experiment (arbitrary fluorescence units); higher = stronger binding
- condition-notes: RUNX1 concentration 2 nM; ETS1 concentration 25 nM
readout-type: RUNX1 binding intensity
Answers are plain numbers.

Some solved cases for reference:
CTGTCCCTAGCAGGATGTGGTTTGCACATTGCTGCT ... 4600
AGGCCCACCTGCTGCGGATGTGGTCTCTGTGTGTGC ... 1340

I would be grateful if you could provide RUNX1 binding intensity for each of the following entries.
1. GACTGCACTTCCTCTGCTTCGAGGTCGGTGGTTAGC
2. GCCACACTTCCGGCGGGGCTGCGACCGCAGAGGGGC
3. CGAAGCCAGGAAATAAGGATAAACCACAGAAAGAAA
4. GGGTCCTTCCGGGTTTTGTGTCGAATCTGCGGCGGC
5. TCCCGAGAGCCGGAAGCAGCCGCAGGCCCCGCCACA
6. GACAGGAAGCCCGCGGCAGCCTCCGTGGTTGCAGAT

Reply:
1. 1450
2. 3600
3. 2010
4. 1720
5. 1330
6. 1090

I would be grateful if you could provide RUNX1 binding intensity for each of the following entries.
1. GGCGGCTTCCGGGATCTGCCTGGCGGTTGCTTTGTC
2. ATAGAAACTACAGGAAATACTGTGGTCAGGTTTTGA
3. GTGGGGCGGGCTTCCGGCGCTCCCACCGCGAGCCGA
4. TCCTGGCAGAGACCGGAAGTGCGGTCCGCGGAGCGT
5. GAGTTGCTTCCGGCCGTGTTGGTGGTCTGAATTGAG
6. AGGCAGCACAGGAAGTTATAACCACATGTACACTTG

Reply:
[2140, 1380, 1500, 1800, 1830, 1960]

I would be grateful if you could provide RUNX1 binding intensity for each of the following entries.
1. CTGGAGAGGATGTGGCCCCAGTGTGGTTCTGTAACT
2. CACCCATAGCACCCCGGAAACCACCTCCACCACCTG
3. TTTCCACTTCCTGTTCTACTTGTGGCTACTGACTCA

Reply:
1. 1170
2. 2020
3. 3380
